Data origin, for the record: the supplement of paper PMC6555819

Form field: PBM binding z-score (one value per entry).
# System: PPARg:RXRa (NR concentration 180 nM, RXRa partner concentration 90 nM)
# ASSAY: PBM binding z-score (relative to random genomic background probes); higher = stronger binding; sequences stand for … in GC…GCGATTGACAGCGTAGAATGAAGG

- SEQUENCE RECORD: "CGTCCAAGGTCAAAGGTCAGCGAAGAGATGACGG"
  PBM binding z-score: 11
- SEQUENCE RECORD: "CGAACTAGGTCAAAGGACAGTGCAAGGCGACGTA"
  PBM binding z-score: 10.3
- SEQUENCE RECORD: "AATACAGGGTCACTGGGCCAGAGTAGGTACGAAT"
  PBM binding z-score: 8.71
- SEQUENCE RECORD: "CCGAGTAGGTTGCGAGGGGGCATTCAGTGCGAAT"
  PBM binding z-score: 0.173
- SEQUENCE RECORD: "CCTAGCCGGCCAATCTGGGTCACTCAAGGCTTGA"
  PBM binding z-score: 1.68
- SEQUENCE RECORD: "TCGAGTAGGTTACGGGGGCATTCAAGGATGAAGA"
  PBM binding z-score: 6.08
- SEQUENCE RECORD: "ACTAGTGGGTCAGCTGAGGTCACACACAATTCGG"
  PBM binding z-score: 6.38
- SEQUENCE RECORD: "CGAACTAGGTCACAGGACAGTGAAAGGCGACGTA"
  PBM binding z-score: 8.8
- SEQUENCE RECORD: "CCGAGTAGGTTACGAGGAGGCATTCAGTGCGAAT"
  PBM binding z-score: 0.943
- SEQUENCE RECORD: "ATCGAAAAGTCGAAGGTGAGTATACCCACCCGAA"
  PBM binding z-score: 0.704
- SEQUENCE RECORD: "CCTACTGGGCCAATAAGGTCATTGATGCCGATAA"
  PBM binding z-score: 2.89
- SEQUENCE RECORD: "ATTTGTAGGTTAGGGTCATTCAGAAAGTAGGGAA"
  PBM binding z-score: 6.37
- SEQUENCE RECORD: "TCGAGTAGGTTACGGGGGCGTTCAGGGATGAAGA"
  PBM binding z-score: 4.72
- SEQUENCE RECORD: "CCTAGTTGGGCAGGAGGTCACACACCGGATATGA"
  PBM binding z-score: 3.31
- SEQUENCE RECORD: "CGAACTAGGTCACCAGGACTGTGAAGAGGTTGGA"
  PBM binding z-score: 8.54
- SEQUENCE RECORD: "AGTCAAAGTTCAGCACGAGGTAACGTAAAGCACG"
  PBM binding z-score: 4.88
- SEQUENCE RECORD: "TCGAGTAGGTTATGGGGGCATTCAGGGATGAAGA"
  PBM binding z-score: 4.86
- SEQUENCE RECORD: "CCGAGTGGGTTACGAGGGGGCATTCAGTGCGAAT"
  PBM binding z-score: 1.75
- SEQUENCE RECORD: "ATATGTAGGTTAGGGTCCTTCAGAAAGTAGGGAA"
  PBM binding z-score: 4.35

----------
# Test system: THRa homodimer (NR concentration 90 nM)
# ASSAY: PBM binding z-score (relative to random genomic background probes); higher = stronger binding; sequences stand for … in GC…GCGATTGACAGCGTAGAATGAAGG

- SEQUENCE RECORD: "CTATGTAGGTTAAGGGGGTCATGCAGTTTGAAAG"
  PBM binding z-score: 2.49
- SEQUENCE RECORD: "CTTAGTTGGTCAAGGTCACACACGCTATAGGTAC"
  PBM binding z-score: 4.65
- SEQUENCE RECORD: "TAGCCTAGGTCATGCGGGTCAGTATAGTGTCGGC"
  PBM binding z-score: 1.35
- SEQUENCE RECORD: "CGAACTAGATCAAAGGACAGTGAAAGGCGACGTA"
  PBM binding z-score: -0.506

----------
# System: PPARa:RXRa (NR concentration 270 nM, RXRa partner concentration 90 nM)
# ASSAY: PBM binding z-score (relative to random genomic background probes); higher = stronger binding; sequences stand for … in GC…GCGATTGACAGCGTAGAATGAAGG
MEASUREMENT TYPE: PBM binding z-score

- SEQUENCE RECORD: "ATCGAAAGGTCGACGAGGAGAGTATACACCGTTT"
  MEASUREMENT TYPE: "PBM binding z-score"
  OBSERVED VALUE: 4.05
- SEQUENCE RECORD: "CTATGTAGTTTAAGGGGGTCATTCAGTTTGAAAG"
  MEASUREMENT TYPE: "PBM binding z-score"
  OBSERVED VALUE: 5.3
- SEQUENCE RECORD: "CCGAGTAGGTTACGAGGGGGCATTCAATGCGAAT"
  MEASUREMENT TYPE: "PBM binding z-score"
  OBSERVED VALUE: 3.62
- SEQUENCE RECORD: "ATATGTAGGTTACCGGGTCATTCAGTTTGCGCAT"
  MEASUREMENT TYPE: "PBM binding z-score"
  OBSERVED VALUE: 5.44
- SEQUENCE RECORD: "CTAAGTAGGTTAAGGGGGTCATTCAGTTTGAAAG"
  MEASUREMENT TYPE: "PBM binding z-score"
  OBSERVED VALUE: 6.01
- SEQUENCE RECORD: "CTATGTAGGTTAAGGAGGTCATTCAGTTTGAAAG"
  MEASUREMENT TYPE: "PBM binding z-score"
  OBSERVED VALUE: 5.23
- SEQUENCE RECORD: "TCTTATAGATCAATAGAGGTTAAGAAAGTGCGCT"
  MEASUREMENT TYPE: "PBM binding z-score"
  OBSERVED VALUE: 1.92
- SEQUENCE RECORD: "CGTCCAAGGTCAGAGAGGTCATTGAATGCCGAGT"
  MEASUREMENT TYPE: "PBM binding z-score"
  OBSERVED VALUE: 6.01
- SEQUENCE RECORD: "CGAACTAGGTCAAAGGACAGTCAAAGGCGACGTA"
  MEASUREMENT TYPE: "PBM binding z-score"
  OBSERVED VALUE: 5.68
- SEQUENCE RECORD: "AATACAGGATCACTAGGCCAGAGTAGGTACGAAT"
  MEASUREMENT TYPE: "PBM binding z-score"
  OBSERVED VALUE: 0.128
- SEQUENCE RECORD: "CTCGAAAGGTCGTGCTTAGGTGAGTATACCAAAC"
  MEASUREMENT TYPE: "PBM binding z-score"
  OBSERVED VALUE: 4.98
- SEQUENCE RECORD: "ACTAGTTGGTCAGCTGAGGTAACACACAATTCGG"
  MEASUREMENT TYPE: "PBM binding z-score"
  OBSERVED VALUE: 0.41
- SEQUENCE RECORD: "CCTCGGAGGACAACCGGAGGTCAGAGCTGCCAGA"
  MEASUREMENT TYPE: "PBM binding z-score"
  OBSERVED VALUE: 1.78
- SEQUENCE RECORD: "CCTTACGGGTCACGGTTATAGCACGGGTGGTACG"
  MEASUREMENT TYPE: "PBM binding z-score"
  OBSERVED VALUE: 5.56
- SEQUENCE RECORD: "AGTCAAAGTTCAGGACGAGGTCACGTAAAGCACG"
  MEASUREMENT TYPE: "PBM binding z-score"
  OBSERVED VALUE: 5.46
- SEQUENCE RECORD: "CCGACTGGGCCATTCAGAGGTCATTGATCATATG"
  MEASUREMENT TYPE: "PBM binding z-score"
  OBSERVED VALUE: 3.44
- SEQUENCE RECORD: "ATCTGTAGGTTAGGGTCATTCAGAAAGTAGGGAA"
  MEASUREMENT TYPE: "PBM binding z-score"
  OBSERVED VALUE: 4.99
- SEQUENCE RECORD: "CGAACTAGGTCACCAGGACATTGAAGAGGTTGGA"
  MEASUREMENT TYPE: "PBM binding z-score"
  OBSERVED VALUE: 5.35
- SEQUENCE RECORD: "CCGACTGGGGCAAAGGTTACCATGCTCAGTACGA"
  MEASUREMENT TYPE: "PBM binding z-score"
  OBSERVED VALUE: 5.76
- SEQUENCE RECORD: "ACTAGTTGGTCAGCTGGGGTCACACACAATTCGG"
  MEASUREMENT TYPE: "PBM binding z-score"
  OBSERVED VALUE: 4.47
- SEQUENCE RECORD: "CCAGAAAGGTGAAAGGTAACTCAGTCTGGTACGC"
  MEASUREMENT TYPE: "PBM binding z-score"
  OBSERVED VALUE: 5.13
- SEQUENCE RECORD: "CTATGTAGGTTAAGGCGGTCATTCAGTTTGAAAG"
  MEASUREMENT TYPE: "PBM binding z-score"
  OBSERVED VALUE: 3.24
- SEQUENCE RECORD: "CAAACTAGGTCAAGGGGTCAAAGTCCGCTTCCCG"
  MEASUREMENT TYPE: "PBM binding z-score"
  OBSERVED VALUE: 6.9
- SEQUENCE RECORD: "CTATGTAGGTTAAGGGGGTCATACAGTTTGAAAG"
  MEASUREMENT TYPE: "PBM binding z-score"
  OBSERVED VALUE: 6.21
- SEQUENCE RECORD: "CGAACTAGGGCACCAGGACAGTGAAGAGGTTGGA"
  MEASUREMENT TYPE: "PBM binding z-score"
  OBSERVED VALUE: 2.31
- SEQUENCE RECORD: "CGTCCAAGGTCACCAGGTCAGTGAAAGCGACGTG"
  MEASUREMENT TYPE: "PBM binding z-score"
  OBSERVED VALUE: 6.01
- SEQUENCE RECORD: "CCTACTGGGCCATGAAAGGTCATTGATTCAGTGA"
  MEASUREMENT TYPE: "PBM binding z-score"
  OBSERVED VALUE: 4.16
- SEQUENCE RECORD: "ATATGTAGGTTAGGGGCATTCAGAAAGTAGGGAA"
  MEASUREMENT TYPE: "PBM binding z-score"
  OBSERVED VALUE: 3.8
